TARGET UNDER TEST: hMOR (Homo sapiens, UniProt P35372)
Construct: expressed in transfected cells; host or cells: HEK 293T (ATCC CRL-11268), transient
Sequence (P35372 whole entry): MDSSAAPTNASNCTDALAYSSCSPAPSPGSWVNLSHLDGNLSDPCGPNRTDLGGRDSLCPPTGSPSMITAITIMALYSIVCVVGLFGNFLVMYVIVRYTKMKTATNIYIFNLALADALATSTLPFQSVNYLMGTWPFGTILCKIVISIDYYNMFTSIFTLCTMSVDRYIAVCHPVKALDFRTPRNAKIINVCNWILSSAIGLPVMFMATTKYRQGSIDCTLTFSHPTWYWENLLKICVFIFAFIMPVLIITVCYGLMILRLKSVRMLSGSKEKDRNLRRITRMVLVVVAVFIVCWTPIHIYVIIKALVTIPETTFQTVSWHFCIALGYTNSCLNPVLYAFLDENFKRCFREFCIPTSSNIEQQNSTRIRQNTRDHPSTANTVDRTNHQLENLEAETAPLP
ASSAY PROTOCOL: cell-based
Format: cell-based
TEST SETTINGS: HEK-293T, read-out: Gi Emax hMOR
MEASUREMENT KIND: Emax (%)
Number in %, nothing else.

• O=C(N[C@@H]1CC[C@H]2[C@H]3Cc4ccc(O)c5c4[C@@]2(CCN3CC2CC2)[C@H]1O5)c1cccc(CO)c1 = 94.6
• CO[C@@]12CC[C@@H](NC(=O)c3cccc(I)c3)C3Oc4c(O)ccc5c4[C@@]31CCN(CC1CC1)C2C5 (stereo partly shown) = 69
• NCc1ccc(C(=O)N[C@@H]2CC[C@H]3[C@H]4Cc5ccc(O)c6c5[C@@]3(CCN4CC3CC3)[C@H]2O6)cc1 = 98.5

Next up:
What measured Emax goes with `O=C(N[C@@H]1CC[C@@]2(O)C3Cc4ccc(O)cc4[C@@]2(CCN3CC2CC2)C1)c1cccc(I)c1` ? 69
